- procedure_text: UV spectrum (absorption maximum and molar extinction)
- Type: physicochemical
- experimental_setup: in Dioxan
measured_endpoint: UV spectrum: Maximum (wavelength; 1. Maximum where two are given) (nm)

>>> recorded_value("CCN(CC)c1ccc(C(=O)c2ccccc2C(=O)N2CCOCC2)c(O)c1")
360
>>> recorded_value("CCN(CC)c1ccc(C(=O)c2ccccc2C(=O)Nc2ccc(-c3nc4ccc(C)cc4s3)cc2)c(O)c1")
336
>>> recorded_value("CCN(CC)c1ccc(C(=O)c2ccccc2C(=O)OC/C=C/COC(=O)c2ccccc2C(=O)c2ccc(N(CC)CC)cc2O)c(O)c1")
351
>>> recorded_value("CCN(CC)c1ccc(C(=O)c2ccccc2C(=O)OC2CC(C)CCC2C(C)C)c(O)c1 (stereo not shown)")
351
>>> recorded_value("CCN(CC)c1ccc(C(=O)c2ccccc2C(=O)N(CCO)CCO)c(O)c1")
359
>>> recorded_value("CCN(CC)c1ccc(C(=O)c2ccccc2C(=O)Nc2ccc(C(N)=O)cc2)c(O)c1")
358
>>> recorded_value("CCN(CC)c1ccc(C(=O)c2ccccc2C(=O)Nc2ccccc2)c(O)c1")
359
